pKd: −log10 of the molar value.
PfLysRS (Plasmodium falciparum) pKd data
Sequence (Q8IDJ8 entry or part of it): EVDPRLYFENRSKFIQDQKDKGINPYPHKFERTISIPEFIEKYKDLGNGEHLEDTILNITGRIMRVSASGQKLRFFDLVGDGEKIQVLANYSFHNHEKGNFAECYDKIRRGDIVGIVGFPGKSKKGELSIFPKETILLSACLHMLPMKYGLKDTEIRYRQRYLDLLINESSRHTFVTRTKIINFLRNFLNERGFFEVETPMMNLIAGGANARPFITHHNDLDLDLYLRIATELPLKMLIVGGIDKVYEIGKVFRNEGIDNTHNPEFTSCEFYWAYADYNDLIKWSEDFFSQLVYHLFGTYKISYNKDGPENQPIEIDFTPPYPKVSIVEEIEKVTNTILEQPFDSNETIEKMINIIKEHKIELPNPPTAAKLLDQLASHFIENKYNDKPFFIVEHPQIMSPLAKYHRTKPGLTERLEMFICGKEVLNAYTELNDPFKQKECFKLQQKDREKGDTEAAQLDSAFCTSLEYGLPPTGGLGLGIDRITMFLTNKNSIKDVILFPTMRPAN
result type: pKd

Input: Would you mind telling me what pKd value was observed for COc1ccc(OC)c(Nc2ncnc(Nc3ccccc3S(=O)(=O)C(C)C)n2)c1 ?
Output: 7.80

[1] COc1ccc(OC)c(Nc2ncnc(Nc3ccccc3S(=O)(=O)CCCNC(=O)[C@@H](N)CCCCN)n2)c1
[2] COc1ccccc1Nc1ncnc(Nc2ccccc2S(=O)(=O)C(C)C)n1
Input: Which of the two items, 1 and 2 , has the greater recorded pKd? Lab note: record the label of whichever item you select.
Output: 1
(1: 7.91, 2: 7.20)

---

- target under test: PfLysRS (Plasmodium falciparum)
- Construct: PfLysRS (77–583) was constructed in the vector pET20b, with a C-terminal 6×His tag; 6xHis (C); made in house; host or cells: E. coli BL21 (DE3)
- method summary: ATP hydrolysis assay (Kinase-Glo) on PfLysRS
- Type: biochemical
- details: read-out: IC50 against PfLysRS
result type: IC50 (µM)

[1] COc1ncccc1Nc1ncnc(Nc2ccccc2S(=O)(=O)C(C)C)n1 [Compound 38a]
[2] COc1ccc(OC)c(Nc2ncnc(Nc3ccccc3S(=O)(=O)C(C)C)n2)c1
Input: # compare IC50 for 1 vs 2 ; return the one with the smaller value Lab note: record the label of whichever item you select.
Output: 2

[A] COc1ccccc1Nc1ncnc(Nc2ccccc2S(=O)(=O)C(C)C)n1
[B] COc1ccc(OC)c(Nc2ncnc(Nc3ccccc3S(=O)(=O)CCCCCNC(=O)[C@@H](N)CCCCN)n2)c1
[C] COc1ccc(OC)c(Nc2ncnc(Nc3ccccc3S(=O)(=O)CCNC(=O)[C@@H](N)CCCCN)n2)c1
[D] COc1ccc(OC)c(Nc2ncnc(Nc3ccccc3S(=O)(=O)CCCNC(=O)[C@@H](N)CCCCN)n2)c1
Input: Write the entries in order, lowest recorded IC50 first. Put the labels in the requested order and write them down.
Output: D, C, A, B
(D: 0.0592 µM, C: 0.365 µM, A: 0.91 µM, B: 2.77 µM)

These entries and their values trace back to paper PMC11189516.
